Target: Protein cereblon/Cyclin-dependent kinase 12 (Homo sapiens, UniProt Q96SW2+Q9NYV4)
Sequence (Q9NYV4 whole entry): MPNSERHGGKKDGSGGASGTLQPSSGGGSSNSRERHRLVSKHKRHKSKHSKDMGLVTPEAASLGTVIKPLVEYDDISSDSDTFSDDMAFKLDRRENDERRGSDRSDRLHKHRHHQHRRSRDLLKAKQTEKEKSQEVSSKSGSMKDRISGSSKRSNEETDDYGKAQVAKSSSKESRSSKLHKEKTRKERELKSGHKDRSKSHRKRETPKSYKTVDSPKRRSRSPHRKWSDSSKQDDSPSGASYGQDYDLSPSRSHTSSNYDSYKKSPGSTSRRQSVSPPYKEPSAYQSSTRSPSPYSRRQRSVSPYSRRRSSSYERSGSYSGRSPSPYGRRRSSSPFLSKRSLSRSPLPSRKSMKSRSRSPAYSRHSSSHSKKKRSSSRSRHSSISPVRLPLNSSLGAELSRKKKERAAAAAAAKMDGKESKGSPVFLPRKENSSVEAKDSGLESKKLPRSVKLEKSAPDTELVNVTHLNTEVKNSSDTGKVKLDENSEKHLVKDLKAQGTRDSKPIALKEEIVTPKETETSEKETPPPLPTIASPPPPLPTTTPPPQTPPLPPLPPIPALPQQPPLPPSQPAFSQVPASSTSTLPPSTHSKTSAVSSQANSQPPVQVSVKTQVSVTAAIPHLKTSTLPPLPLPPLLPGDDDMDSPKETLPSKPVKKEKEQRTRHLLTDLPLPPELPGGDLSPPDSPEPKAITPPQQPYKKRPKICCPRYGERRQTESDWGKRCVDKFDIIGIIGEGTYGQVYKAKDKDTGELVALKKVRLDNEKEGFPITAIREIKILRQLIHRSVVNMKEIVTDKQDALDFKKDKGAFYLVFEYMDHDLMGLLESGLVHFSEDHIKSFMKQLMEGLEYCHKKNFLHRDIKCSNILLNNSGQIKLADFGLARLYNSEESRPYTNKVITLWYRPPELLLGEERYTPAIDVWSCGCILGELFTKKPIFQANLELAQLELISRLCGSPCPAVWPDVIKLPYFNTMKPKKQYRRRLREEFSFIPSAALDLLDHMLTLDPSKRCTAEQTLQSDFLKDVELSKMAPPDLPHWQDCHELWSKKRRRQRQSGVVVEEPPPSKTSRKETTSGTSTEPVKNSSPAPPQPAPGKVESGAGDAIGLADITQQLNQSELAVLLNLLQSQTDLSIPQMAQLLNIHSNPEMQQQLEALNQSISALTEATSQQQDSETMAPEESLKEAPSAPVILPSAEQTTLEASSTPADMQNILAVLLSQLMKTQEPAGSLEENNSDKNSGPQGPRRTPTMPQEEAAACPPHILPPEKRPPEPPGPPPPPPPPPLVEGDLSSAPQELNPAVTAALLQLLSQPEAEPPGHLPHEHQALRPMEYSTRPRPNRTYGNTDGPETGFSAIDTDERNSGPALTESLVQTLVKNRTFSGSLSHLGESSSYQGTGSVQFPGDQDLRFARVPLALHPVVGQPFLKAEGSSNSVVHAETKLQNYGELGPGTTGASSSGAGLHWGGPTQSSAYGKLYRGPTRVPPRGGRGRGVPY
Sequence (Q96SW2 whole entry): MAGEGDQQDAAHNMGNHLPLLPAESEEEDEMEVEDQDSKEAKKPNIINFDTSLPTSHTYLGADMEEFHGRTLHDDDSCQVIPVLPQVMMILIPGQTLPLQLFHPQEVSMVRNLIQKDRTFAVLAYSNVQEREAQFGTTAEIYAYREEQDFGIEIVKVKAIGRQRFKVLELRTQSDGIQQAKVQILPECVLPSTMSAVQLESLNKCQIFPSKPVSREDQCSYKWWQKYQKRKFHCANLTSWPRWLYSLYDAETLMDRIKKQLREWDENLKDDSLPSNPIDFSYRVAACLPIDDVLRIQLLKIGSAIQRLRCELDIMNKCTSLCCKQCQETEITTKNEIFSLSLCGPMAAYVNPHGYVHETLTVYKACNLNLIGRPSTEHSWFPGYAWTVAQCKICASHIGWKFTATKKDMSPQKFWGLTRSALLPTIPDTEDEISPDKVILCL
Test: Protac activity at CRBN/CDK12 in human MOLT-4 cells assessed as […] by Westernblot analysis
Type: cell-based
measure: IC50 (µM)

I = O=C(COc1cccc2c1C(=O)N(C1CCC(=O)NC1=O)C2=O)NCCCCCCCN1CCC[C@H](Nc2ncc(Cl)c(-c3c[nH]c4ccccc34)n2)C1 (some centres not stated)
II = Clc1cnc(N[C@H]2CCCNC2)nc1-c1c[nH]c2ccccc12
Exercise: Short answer wanted: higher IC50, I or II ? Your answer should be the label attached to the chosen record.
Key: II
(II: 0.107 µM, I: 0.009 µM)

* * *

Target: UniProt P06493
Sequence (P06493 whole entry): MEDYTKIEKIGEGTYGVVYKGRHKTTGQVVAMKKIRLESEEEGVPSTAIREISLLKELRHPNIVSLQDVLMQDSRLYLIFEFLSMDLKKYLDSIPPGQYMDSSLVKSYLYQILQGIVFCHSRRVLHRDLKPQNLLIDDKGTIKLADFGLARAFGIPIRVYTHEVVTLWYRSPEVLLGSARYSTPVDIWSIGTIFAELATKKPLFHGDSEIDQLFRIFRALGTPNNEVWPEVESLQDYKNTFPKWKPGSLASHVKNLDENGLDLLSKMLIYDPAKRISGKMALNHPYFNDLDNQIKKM
Assay: Inhibition of full length recombinant human CDK1 expressed in Insect cell in presence of ATP
measure: IC50 (µM)

1 = CCn1cnc2c(NCc3nc4ccc(F)c(F)c4[nH]3)nc(N3CCCC[C@H]3CCO)nc21
2 = CCc1cnn2c(NCc3nc4ccc(F)c(F)c4[nH]3)cc(N3CCCC[C@H]3CCO)nc12
Exercise: Short answer wanted: higher IC50, 1 or 2 ? Your answer should be the label attached to the chosen record.
Key: 1

* * *

Target: Cyclin-dependent kinase 2 (Homo sapiens, UniProt P24941)
Test: Inhibition of full length recombinant human CDK2 expressed in Insect cell in presence of ATP
measure: IC50 (nM)
Answer with a number only, understood to be in nM.

Exercise: Output measured IC50 for this item: CCc1cnn2c(NCc3nc4ccc(F)c(F)c4[nH]3)cc(N3CCCC[C@H]3CCO)nc12
Key: 40

* * *

Target: Cyclin-dependent kinase 12 (Homo sapiens)
Test: Inhibition of GST-tagged recombinant human CDK12 (696 to 1082 residues) expressed in Insect cell in presence of ATP by high ATP assay
measure: pIC50
The scale used: pIC50 is minus the common logarithm of the concentration in molar units.

Exercise: Output measured pIC50 for this item: CCc1cnn2c(NCc3nc4ccc(F)c(F)c4[nH]3)cc(N3CCCC[C@H]3CCO)nc12
Key: 7.33

* * *

Target: Cyclin-dependent kinase 12 (Mus musculus, UniProt Q14AX6)
Sequence (Q14AX6 whole entry): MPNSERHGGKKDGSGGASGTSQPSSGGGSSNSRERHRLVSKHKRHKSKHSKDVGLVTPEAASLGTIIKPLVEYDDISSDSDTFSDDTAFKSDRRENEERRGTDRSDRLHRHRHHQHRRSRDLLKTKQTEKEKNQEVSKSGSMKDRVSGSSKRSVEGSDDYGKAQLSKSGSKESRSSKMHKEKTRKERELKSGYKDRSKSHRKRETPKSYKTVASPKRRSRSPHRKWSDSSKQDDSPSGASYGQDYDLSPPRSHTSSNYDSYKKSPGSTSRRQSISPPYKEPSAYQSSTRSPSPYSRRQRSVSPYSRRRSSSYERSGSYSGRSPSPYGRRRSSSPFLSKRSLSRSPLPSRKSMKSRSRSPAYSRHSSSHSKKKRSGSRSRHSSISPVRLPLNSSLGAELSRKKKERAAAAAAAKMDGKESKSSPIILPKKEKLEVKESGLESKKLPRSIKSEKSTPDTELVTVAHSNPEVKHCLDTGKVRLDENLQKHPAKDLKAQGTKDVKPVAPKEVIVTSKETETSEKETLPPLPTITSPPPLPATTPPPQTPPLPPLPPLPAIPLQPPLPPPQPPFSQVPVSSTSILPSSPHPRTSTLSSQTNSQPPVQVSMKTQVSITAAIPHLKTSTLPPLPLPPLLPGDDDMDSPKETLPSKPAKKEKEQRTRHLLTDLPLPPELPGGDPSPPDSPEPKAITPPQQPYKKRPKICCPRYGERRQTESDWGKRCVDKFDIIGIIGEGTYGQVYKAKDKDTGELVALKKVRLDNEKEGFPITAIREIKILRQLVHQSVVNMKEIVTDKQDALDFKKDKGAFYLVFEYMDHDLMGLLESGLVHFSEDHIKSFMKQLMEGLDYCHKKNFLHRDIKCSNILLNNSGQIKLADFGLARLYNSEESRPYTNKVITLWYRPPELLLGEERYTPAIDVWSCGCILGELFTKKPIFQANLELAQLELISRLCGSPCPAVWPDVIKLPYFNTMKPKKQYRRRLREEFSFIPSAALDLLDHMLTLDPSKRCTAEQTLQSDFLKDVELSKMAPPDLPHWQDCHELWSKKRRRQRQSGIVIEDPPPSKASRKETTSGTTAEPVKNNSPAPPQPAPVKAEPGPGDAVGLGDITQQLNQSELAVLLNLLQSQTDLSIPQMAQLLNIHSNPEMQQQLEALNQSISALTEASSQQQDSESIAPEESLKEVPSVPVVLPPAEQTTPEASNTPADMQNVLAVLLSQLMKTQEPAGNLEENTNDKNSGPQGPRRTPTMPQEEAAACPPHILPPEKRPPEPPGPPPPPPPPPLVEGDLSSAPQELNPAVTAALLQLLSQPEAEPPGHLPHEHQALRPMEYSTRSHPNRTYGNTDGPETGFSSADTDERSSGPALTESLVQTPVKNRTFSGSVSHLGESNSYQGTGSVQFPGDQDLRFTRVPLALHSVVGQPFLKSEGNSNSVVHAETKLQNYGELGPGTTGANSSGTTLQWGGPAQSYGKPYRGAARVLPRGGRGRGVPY
Assay: Inhibition of CDK12 in mouse OV2944-HM-1 cells by Westernblot analysis
measure: pEC50
The scale used: pEC50 is minus the common logarithm of the concentration in molar units.

molecular string	measurement
O=C(CN1CCC[C@@H](Nc2ncc(Cl)c(-c3c[nH]c4ccccc34)n2)C1)Nc1ccc([As]2SCCS2)cc1	7.49

// next entry
Exercise: Output measured pEC50 for this item: O=C(CN1CCC[C@@H](Nc2ncc(Cl)c(-c3c[nH]c4ccccc34)n2)C1)Nc1ccc([As](O)O)cc1
Key: 7.46

* * *

Molecular target: UniProt Q9NYV4
Experiment: Inhibition of GST-tagged recombinant human CDK12 (696 to 1082 residues) expressed in Insect cell in presence of ATP by Km ATP assay
measure: IC50 (nM)

molecular string	system under test	measure	measurement
CCc1cnn2c(NCc3nc4ccc(F)c(F)c4[nH]3)cc(N3CCCC[C@H]3CCO)nc12	UniProt Q9NYV4	IC50	22

a = CCn1cnc2c(NCc3nc4ccc(F)c(F)c4[nH]3)nc(N3CCCC[C@H]3CCO)nc21
b = CC(C)n1cnc2c(NCc3nc4ccc(F)c(F)c4[nH]3)nc(N3CCCC[C@H]3CCO)nc21
Exercise: For the pair a and b , which member has the lower IC50 number? Your answer should be the label attached to the chosen record.
Key: a

* * *

Biological target: Cyclin-dependent kinase 9 (Homo sapiens)
Sequence (P50750 whole entry): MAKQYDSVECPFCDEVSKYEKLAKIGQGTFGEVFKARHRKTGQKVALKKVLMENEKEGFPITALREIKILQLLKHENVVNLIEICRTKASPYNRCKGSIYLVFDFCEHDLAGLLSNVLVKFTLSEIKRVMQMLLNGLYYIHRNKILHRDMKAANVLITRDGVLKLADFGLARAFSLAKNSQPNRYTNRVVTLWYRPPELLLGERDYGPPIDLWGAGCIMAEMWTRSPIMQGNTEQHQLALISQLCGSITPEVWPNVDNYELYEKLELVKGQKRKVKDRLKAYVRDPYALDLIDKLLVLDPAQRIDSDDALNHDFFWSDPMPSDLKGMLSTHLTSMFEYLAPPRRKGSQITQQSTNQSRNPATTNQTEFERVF
Assay: Inhibition of recombinant human CDK9 expressed in baculovirus infected Insect cell measured after 30 mins by scintillation counter analysis
measure: pIC50
The scale used: pIC50 is minus the common logarithm of the concentration in molar units.

Exercise: Recall the reported pIC50 of CN(C)C/C=C/C(=O)Nc1ccc(C(=O)N2CCC[C@@H](Nc3ncc(Cl)c(-c4c[nH]c5ccccc45)n3)C2)cc1 on Cyclin-dependent kinase 9 (Homo sapiens) and write it down.
Key: 4.98

* * *

Target: UniProt P50613
Sequence (P50613 whole entry): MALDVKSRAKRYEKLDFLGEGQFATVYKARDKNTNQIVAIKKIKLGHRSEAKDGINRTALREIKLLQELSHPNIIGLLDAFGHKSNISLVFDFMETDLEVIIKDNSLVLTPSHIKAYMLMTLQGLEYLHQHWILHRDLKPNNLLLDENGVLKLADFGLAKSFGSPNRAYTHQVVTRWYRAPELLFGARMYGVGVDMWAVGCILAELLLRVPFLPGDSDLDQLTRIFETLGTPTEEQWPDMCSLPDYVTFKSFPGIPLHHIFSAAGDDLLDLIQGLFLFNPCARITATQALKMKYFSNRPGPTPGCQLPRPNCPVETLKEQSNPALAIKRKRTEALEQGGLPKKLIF
Test: Inhibition of full length recombinant human CDK7 expressed in Insect cell in presence of ATP
measure: IC50 (µM)
Answer with a number only, understood to be in µM.

Exercise: Output measured IC50 for this item: CCc1cnn2c(NCc3nc4ccc(F)c(F)c4[nH]3)cc(N3CCCC[C@H]3CCO)nc12
Key: 21.2

* * *

Molecular target: Cyclin-dependent kinase 12 (Homo sapiens, UniProt Q9NYV4)
Sequence (Q9NYV4 whole entry, the tested form may be a part): as the sequence (Q9NYV4 whole entry) above
Test: Inhibition of CDK12 (unknown origin)
measure: IC50 (nM)
Answer with a number only, understood to be in nM.

Exercise: Recall the reported IC50 of CN(C)C/C=C/C(O)Nc1ccc(C(=O)Nc2cccc(Nc3ncc(Cl)c(-c4c[nH]c5ccccc45)n3)c2)cc1 (stereo unspecified) on Cyclin-dependent kinase 12 (Homo sapiens, UniProt Q9NYV4) and write it down.
Key: 893

* * *

Target: Cyclin-dependent kinase 6 (Homo sapiens, UniProt Q00534)
Sequence (Q00534 whole entry): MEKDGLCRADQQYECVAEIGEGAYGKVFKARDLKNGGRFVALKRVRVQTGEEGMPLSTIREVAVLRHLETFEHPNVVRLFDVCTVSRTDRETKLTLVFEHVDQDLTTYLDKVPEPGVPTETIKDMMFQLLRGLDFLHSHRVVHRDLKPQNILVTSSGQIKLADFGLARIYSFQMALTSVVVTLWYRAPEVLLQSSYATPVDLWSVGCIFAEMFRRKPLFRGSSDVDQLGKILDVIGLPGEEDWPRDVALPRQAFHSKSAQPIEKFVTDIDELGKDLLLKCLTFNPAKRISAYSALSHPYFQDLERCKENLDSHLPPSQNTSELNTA
measure: pKd
The scale used: pKd is minus the common logarithm of the concentration in molar units.

Exercise: Recall the reported pKd of Cn1cc(-n2cnc3c(NCc4nc5cc(Cl)c(Cl)cc5[nH]4)nc(N4CCOCC4)nc32)cn1 on Cyclin-dependent kinase 6 (Homo sapiens, UniProt Q00534) and write it down.
Key: 5.29

Recorded values, source ChEMBL document CHEMBL5356939.
